test system: Corn Earworm (CEW) (Helicoverpa zea); assay: Bioassay on Corn Earworm (CEW), 128-well diet tray assay; format: in vivo; conditions: Helicoverpa zea, 168 h; 50 μg/cm2 on artificial diet, second instar larvae, five to seven days; read-out: Rating CEW (% Control (or Mortality))
Readings of mortality at 50 µg/cm2 for the listed molecules

Query (molecule): `COc1ccc(N/C(=N/C(=O)Nc2ccc(-c3ncn(-c4ccc(OC(F)(F)F)cc4)n3)cc2)SCS[C@@H]2O[C@@H](C)[C@H](OC)[C@@H](OC)[C@H]2OC)c(C)c1` ; field requested: mortality at 50 µg/cm2
50 to 100%

Which measured mortality at 50 µg/cm2 value corresponds to CCC(C)c1ccccc1N1C(=O)CS/C1=N\C(=O)Nc1ccc(-c2ncn(-c3ccc(OC(F)(F)F)cc3)n2)cc1 (stereo not drawn) ?
50 to 100%

Entry `Cc1ccccc1N/C(S)=C(\C#N)C(=O)Nc1ccc(-c2ncn(-c3ccc(OC(F)(F)F)cc3)n2)cc1` has what mortality at 50 µg/cm2?
50 to 100%

# get_value(readout='mortality at 50 µg/cm2', item= `Cc1cccc(C)c1N/C(=N/C(=O)Nc1ccc(-c2ncn(-c3ccc(OC(F)(F)F)cc3)n2)cc1)SCOC(=O)C(C)C` )
50 to 100%

Param item = `CCc1ccccc1N/C(S)=N/C(=O)Nc1ccc(-c2ncn(-c3ccc(OC(F)(F)F)cc3)n2)cc1` ; retrieve measured mortality at 50 µg/cm2.
50 to 100%

Name the recorded mortality at 50 µg/cm2 for `CC(C)c1ccccc1N/C(S)=N/C(=O)Nc1ccc(-c2nnc(-c3ccc(OC(F)(F)C(F)(F)F)cc3)o2)cc1` .
0%

The measurements presented in this section are drawn from patent US20150196033A1.
